Values from paper PMC6891756

List of log10 of MIC tested on Escherichia coli ATCC10536.
// stored as log10 of MIC expressed in µg/mL

Nc1cccc(C(=O)/C=C/c2ccc([N+](=O)[O-])cc2)c1 tested on Escherichia coli ATCC10536 gave log10 of MIC: 3.00

The measured log10 of MIC that Nc1ccc(C(=O)/C=C/c2ccc(OCc3ccccc3)cc2)cc1 showed for Escherichia coli ATCC10536 is -0.90

Lab note: molecule Nc1cccc(C(=O)/C=C/c2ccc(OCc3ccccc3)cc2)c1 tested on Escherichia coli ATCC10536; recorded log10 of MIC was -1.20

Bench note, Escherichia coli ATCC10536: COc1cc(/C=C/C(=O)c2cccc(N)c2)ccc1OCc1ccccc1 , log10 of MIC reads -0.90

Value (log10 of MIC, Escherichia coli ATCC10536) for record CCc1ccc(/C=C/C(=O)c2cccc(N)c2)cc1 = 0.00

Measured log10 of MIC (Escherichia coli ATCC10536), entry CN(C)[C@@H]1C(O)=C(C(N)=O)C(=O)[C@@]2(O)C(O)=C3C(=O)c4c(O)cccc4[C@@](C)(O)[C@H]3[C@H](O)[C@@H]12 [Oxytetracycline, reference compound] : -0.30

Considering Nc1ccccc1C(=O)/C=C/c1ccc(C(=O)O)cc1 , its log10 of MIC with Escherichia coli ATCC10536 was recorded as -0.90

###

The entries below come with measured ∆OD S. aureus values attached.
Tested on: Staphylococcus aureus DSM799
Experiment: Microbial growth curve screening, S. aureus
Assay type: cell-based
Conditions: 0.1% (w/v), OD at 560 nm, control 1.67
Respond numerically, and do not add a unit to the figure.

1. Nc1ccccc1C(=O)/C=C/c1ccc(C(=O)O)cc1 | 0.0

Bench note, Staphylococcus aureus DSM799: Nc1ccc(C(=O)/C=C/c2ccc(C(=O)O)cc2)cc1 , ∆OD S. aureus reads 0.35

CCc1ccc(/C=C/C(=O)c2ccc(N)cc2)cc1 on Staphylococcus aureus DSM799 gives ∆OD S. aureus = 0.87

Here COc1cc(/C=C/C(=O)c2cccc(N)c2)ccc1OCc1ccccc1 was tested on Staphylococcus aureus DSM799, and its ∆OD S. aureus came to 0.36

GET /values?item= COc1cc(/C=C/C(=O)c2ccccc2N)ccc1OCc1ccccc1 &system= Staphylococcus aureus DSM799 returns ∆OD S. aureus: 0

With Staphylococcus aureus DSM799 as the test system, CCc1ccc(/C=C/C(=O)c2ccccc2N)cc1 showed ∆OD S. aureus of 0.84

Field ∆OD S. aureus (Staphylococcus aureus DSM799), entry Nc1ccc(C(=O)/C=C/c2ccccc2)cc1 : 0.0

Entry Nc1ccc(C(=O)/C=C/c2ccc(OCc3ccccc3)cc2)cc1 ; assay system Staphylococcus aureus DSM799; ∆OD S. aureus recorded at 0.22

Staphylococcus aureus DSM799 ∆OD S. aureus of Nc1cccc(C(=O)/C=C/c2ccccc2)c1 is 0.0

Per the reported Staphylococcus aureus DSM799 data, Nc1cccc(C(=O)/C=C/c2ccc(C(=O)O)cc2)c1 has ∆OD S. aureus of 0.0

Item CCc1ccc(/C=C/C(=O)c2cccc(N)c2)cc1 ; assay system Staphylococcus aureus DSM799; ∆OD S. aureus reported as 0.98

###

Below are MIC values recorded for Escherichia coli ATCC10536.
Hi! Could you send only the number? It should be in µg/mL, unit omitted.

A selection of reference data follows.
1) Nc1ccc(C(=O)/C=C/c2ccc([N+](=O)[O-])cc2)cc1 | 0.25
2) COc1cc(/C=C/C(=O)c2ccc(N)cc2)ccc1OCc1ccccc1 | 0.5
3) Nc1ccccc1C(=O)/C=C/c1ccc(OCc2ccccc2)cc1 | 0.25
4) Nc1ccc(C(=O)/C=C/c2ccccc2)cc1 | 0.5
5) COc1cc(/C=C/C(=O)c2ccccc2N)ccc1OCc1ccccc1 | 0.5

Consider now this further compound.
MIC reported for this compound CCc1ccc(/C=C/C(=O)c2ccccc2N)cc1 : 0.5

###

Experiment: SRB assay, normal fibroblasts COS7
Format: cell-based, green monkey
Conditions: green monkey, COS7 kidney fibroblasts (normal cell line), ND = not detected in the tested concentration range
assay.readout: IC50 at 48 h (µg/mL)
Reply numerically in µg/mL, unit not repeated.

1. Nc1ccc(C(=O)/C=C/c2ccc(C(=O)O)cc2)cc1 | 32
2. Nc1cccc(C(=O)/C=C/c2ccc(OCc3ccccc3)cc2)c1 | 7.61
3. CCc1ccc(/C=C/C(=O)c2cccc(N)c2)cc1 | 4.42
4. Nc1ccc(C(=O)/C=C/c2ccc(OCc3ccccc3)cc2)cc1 | 13.4
5. COc1cc(/C=C/C(=O)c2ccccc2N)ccc1OCc1ccccc1 | 9.02

Form: compound = CCc1ccc(/C=C/C(=O)c2ccccc2N)cc1 ; IC50 at 48 h = 9.57

// IC50 at 48 h value for Nc1ccccc1C(=O)/C=C/c1ccc(C(=O)O)cc1 : 7.78

###

Test system: Aspergillus niger DSM1957
Experiment: Microbial growth curve screening, A. niger
Type: cell-based
Settings: 0.1% (w/v), OD at 560 nm, control 2.14
assay.readout: ∆OD A. niger
Response field accepts a number only; no unit should be typed.

Some molecules with recorded ∆OD A. niger:
1. Nc1ccccc1C(=O)/C=C/c1ccc([N+](=O)[O-])cc1 | 0.79
2. COc1cc(/C=C/C(=O)c2ccccc2N)ccc1OCc1ccccc1 | 0.41
3. CCc1ccc(/C=C/C(=O)c2ccccc2N)cc1 | 0.60
4. Nc1ccccc1C(=O)/C=C/c1ccc(OCc2ccccc2)cc1 | 0.78

// Nc1ccc(C(=O)/C=C/c2ccc(C(=O)O)cc2)cc1 : ∆OD A. niger value = 0.51

Entry under test: Nc1cccc(C(=O)/C=C/c2ccccc2)c1 . Its ∆OD A. niger was 0.34

Note to self: ∆OD A. niger recorded for Nc1cccc(C(=O)/C=C/c2ccc(C(=O)O)cc2)c1 was 1.11

###

MIC by entry:
Tested on: Escherichia coli ATCC10536
Record the value in µg/mL, omitting the unit from your answer.

Known results for molecules:
1. Nc1ccc(C(=O)/C=C/c2ccc(C(=O)O)cc2)cc1 [Compound 9, 4′-Amino-4-carboxychalcone] | 0.125
2. Nc1ccccc1C(=O)/C=C/c1ccc([N+](=O)[O-])cc1 [Compound 10, 2′-Amino-4-nitrochalcone] | 0.25
3. Nc1cccc(C(=O)/C=C/c2ccccc2)c1 [Compound 2, 3′-Aminochalcone] | 0.25

Continue with the next molecule.
Noted MIC for Nc1cccc(C(=O)/C=C/c2ccc(C(=O)O)cc2)c1 [Compound 8, 3′-Amino-4-carboxychalcone] , tested on Escherichia coli ATCC10536: 0.125

###

Test: SRB assay, normal fibroblasts COS7
Assay type: cell-based, green monkey
Settings: green monkey, COS7 kidney fibroblasts (normal cell line), ND = not detected in the tested concentration range
Collected IC50 at 48 h values appear next to each entry.
Only the number, expressed in µg/mL, is required.

Some molecules with known IC50 at 48 h results, for comparison:
1. Nc1ccc(C(=O)/C=C/c2ccccc2)cc1 | 3.85
2. COc1cccc2c1C(=O)c1c(O)c3c(c(O)c1C2=O)C[C@@](O)(C(=O)CO)C[C@@H]3O[C@H]1C[C@H](N)[C@H](O)[C@H](C)O1 [Compound 20, Doxorubicin, reference compound] | 3.55
3. COc1cc(/C=C/C(=O)c2cccc(N)c2)ccc1OCc1ccccc1 | 3.45
4. Nc1ccc(C(=O)/C=C/c2ccc([N+](=O)[O-])cc2)cc1 | 3.1
5. Nc1cccc(C(=O)/C=C/c2ccc(C(=O)O)cc2)c1 | 15.9
6. Nc1cccc(C(=O)/C=C/c2ccccc2)c1 | 3.25

Sample CCc1ccc(/C=C/C(=O)c2ccc(N)cc2)cc1 ; IC50 at 48 h observed: 7.16

Given item Nc1ccccc1C(=O)/C=C/c1ccc([N+](=O)[O-])cc1 , the value recorded as its IC50 at 48 h is 1.79

Note to self: IC50 at 48 h recorded for Nc1cccc(C(=O)/C=C/c2ccc([N+](=O)[O-])cc2)c1 was 2.3

Item: Nc1ccccc1C(=O)/C=C/c1ccccc1 | IC50 at 48 h: 2.64

###

assay.readout: melting point

Short answer for COc1cc(/C=C/C(=O)c2cccc(N)c2)ccc1OCc1ccccc1 : melting point was 38 °C

Looking up Nc1cccc(C(=O)/C=C/c2ccc([N+](=O)[O-])cc2)c1 , I found its melting point recorded as 166 to 168 °C

Query Nc1ccc(C(=O)/C=C/c2ccc([N+](=O)[O-])cc2)cc1 yields melting point of 205 to 207 °C

GET /value?item= Nc1cccc(C(=O)/C=C/c2ccccc2)c1 &field=melting point returns 121 to 124 °C

The compound listed as Nc1cccc(C(=O)/C=C/c2ccc(OCc3ccccc3)cc2)c1 shows melting point equal to 115 to 120 °C

###

Parameter Lag-phase A. alternata: see the listing below.
Tested on: Alternaria alternata CBS1526
Test: Microbial growth curve screening, A. alternata
Type: cell-based
Conditions: 0.1% (w/v), control 16.5 h
Report the value in h with no unit label.

1) Nc1cccc(C(=O)/C=C/c2ccc([N+](=O)[O-])cc2)c1 | 42.0

Value of measured Lag-phase A. alternata for the entry Nc1ccccc1C(=O)/C=C/c1ccc([N+](=O)[O-])cc1 : 0.5

Record CCc1ccc(/C=C/C(=O)c2cccc(N)c2)cc1 , field Lag-phase A. alternata: 12.0

compound Nc1ccccc1C(=O)/C=C/c1ccc(OCc2ccccc2)cc1 , Lag-phase A. alternata observed: 13.0
